Data origin: paper PMC3407795

Protocol text: Biodistribution in AR4-2J tumor-bearing mice
Assay type: in vivo
Particulars: female, mouse, liver, iv, total radioactivity; AR4-2J tumor SCID mice, 4 h pi + co-injection of 50 nmol Tate; mean ± SD; read-out: Liver uptake, blocked
Observation type: tissue uptake at 4 h (%ID/g)

Compound: C[C@H](NC(=O)CN1CCN(CC(=O)O)CCN(CC(=O)O)CCN(CC(=O)O)CC1)C(=O)NCC(=O)N[C@H]1CSSC[C@@H](C(=O)O)NC(=O)[C@H](CO)NC(=O)[C@H]([C@@H](C)O)NC(=O)[C@H](Cc2ccccc2)NC(=O)[C@H]([C@@H](C)O)NC(=O)[C@H](CCCCN)NC(=O)[C@@H](Cc2c[nH]c3ccccc23)NC(=O)[C@H](Cc2ccccc2)NC(=O)[C@H](Cc2ccccc2)NC(=O)[C@H](CC(N)=O)NC(=O)[C@H](CCCCN)NC1=O [[^111In]AT2S, metal not drawn]
Observation type: tissue uptake at 4 h
Value observed: 1.02
